- System Name: T1, purified human activated C1s protein, two-chain form (Homo sapiens, UniProt P09871 16-688)
- T1 construct: Purified protein bought from EMD Millipore; Biotin-labeled in the clone screen; also called active C1s; native C1s protein
- T1 sequence: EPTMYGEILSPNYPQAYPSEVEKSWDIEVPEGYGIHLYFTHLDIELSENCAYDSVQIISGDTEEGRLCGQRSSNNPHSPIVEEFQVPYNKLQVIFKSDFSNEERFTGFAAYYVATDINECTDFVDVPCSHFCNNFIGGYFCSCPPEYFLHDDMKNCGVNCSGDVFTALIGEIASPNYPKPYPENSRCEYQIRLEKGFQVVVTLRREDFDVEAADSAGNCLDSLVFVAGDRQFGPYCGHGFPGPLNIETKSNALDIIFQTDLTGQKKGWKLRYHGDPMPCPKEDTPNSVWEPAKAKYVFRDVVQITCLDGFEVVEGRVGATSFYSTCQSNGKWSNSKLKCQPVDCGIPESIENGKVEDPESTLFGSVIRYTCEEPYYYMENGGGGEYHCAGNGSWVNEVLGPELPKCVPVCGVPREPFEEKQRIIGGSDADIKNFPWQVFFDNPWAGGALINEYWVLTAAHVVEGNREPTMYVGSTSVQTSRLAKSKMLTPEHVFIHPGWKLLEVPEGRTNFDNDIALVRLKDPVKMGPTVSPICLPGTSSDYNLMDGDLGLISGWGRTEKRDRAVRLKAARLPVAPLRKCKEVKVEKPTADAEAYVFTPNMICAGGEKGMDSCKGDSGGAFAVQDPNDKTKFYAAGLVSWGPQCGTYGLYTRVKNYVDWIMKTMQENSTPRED
- Test Details: bio-layer interferometry (BLI), kinetic analysis
Recorded Metric: koff (s⁻¹)
# number only, unit s⁻¹ dropped from output

antibody IPN-M27 (antibody, V domains shown, Mouse monoclonal antibody (NZBW hybridoma)) VH: QVQLQQSGAELVRPGASVKLSCKVSGYTFTRYWMHWVKQRPGQGLEWIGEINPSNSDTDYNEEFKSKATLTVDKSSSTAYMHLSNLTSEDSAVYYCTIDDSAYGWFAYWGQGTLVTVSA VL: DIVLTQSTAIMSASPGERVTMTCSASSSISYMHWYHQKPGTSPKRWIYDTSKLASGVPARFSGSGSGTSYSLAISSMEAEDAATYYCHQRSSFPTFGAGTKLELK
0.000394
antibody IPN-M29 (antibody, V domains shown, Mouse monoclonal antibody (NZBW hybridoma)) VH: EVQLQQSGPELVKPGASVKISCKASGYSFTGFYMQWVKQSPEKNLEWIGEINPTTGDETYNQKFQAKATLTVDKSSSTAYMQLKSLTSEDSAVYFCASDFYDGSFAWFEYWGKDYLTVSA VL: DIVLTQSPVIMSASPGEKVTMTCSASSSISYIHWYQQKPGTSPKRWIYDTSKLASGVPARFSGSGSGTSYSLTISSMEAEDAATYYCHQRSSYLTFGSGTKLEIK
0.000594

What measured koff goes with antibody IPN-M23 (antibody, V domains shown, Mouse monoclonal antibody (NZBW hybridoma)) VH: QVQLQQPGAELVRPGASVKLSCKVSGYTFTRYWMHWVKQRPGQGLEWIGEINPSNSDTDYNEEFKSKATLTVDKSSSTAYMHLSSLTSEDSAVYYCTIDDSVYGWFAYWGQGTLVTVSA VL: DIVMTQSPAIMFASPGERVTMTCSASSSISYMPWYPQKPGPSPKRWIYDTSKLASGVPARFSGSGFGTFYSLTISSMEAEDAAPYYCHQRSSFPPFGAGTKLELK ?
0.000353

src = patent US20200079876A1
